- System: Italian ryegrass (Lolium multiflorum)
- assay.details: Test F pre-/postemergence plant response
- Assay type: in vivo
- conditions.used: Lolium multiflorum, pre-emergence; Preemergence; scale 0 to 100; read-out: Plant response rating, Ryegrass, Italian
endpoint: pest or weed control at 62 g/ha
Give your result as the value with the unit written after it.

// fetch pest or weed control at 62 g/ha given entry FC(F)c1cc(-c2ccccc2Oc2ncc(Cl)cn2)no1 65%

Query pest or weed control at 62 g/ha for FC(F)c1cc(-c2ccccc2Oc2ncc(Cl)cn2)on1 0%

Given the molecule Fc1cccc(Oc2ncc(Cl)cn2)c1-c1cc(C(F)(F)F)on1 , write its reported pest or weed control at 62 g/ha. 65%

Quickly give me recorded pest or weed control at 62 g/ha for FC(F)(F)c1cc(-c2ccccc2Oc2ncc(Cl)cn2)no1 20%

Supply pest or weed control at 62 g/ha value. Item: Fc1cccc(Oc2ncc(Br)cn2)c1-c1cc(C(F)F)no1 40%
